Target: T1, human Siglec15 on human-siglec15-2D3-1E1 cells (human, UniProt Q6ZMC9 20-328)
T1 construct: whole, on cells; Transfected HEK-293 cells; also called cell surface human Siglec15
T1 sequence (looked up): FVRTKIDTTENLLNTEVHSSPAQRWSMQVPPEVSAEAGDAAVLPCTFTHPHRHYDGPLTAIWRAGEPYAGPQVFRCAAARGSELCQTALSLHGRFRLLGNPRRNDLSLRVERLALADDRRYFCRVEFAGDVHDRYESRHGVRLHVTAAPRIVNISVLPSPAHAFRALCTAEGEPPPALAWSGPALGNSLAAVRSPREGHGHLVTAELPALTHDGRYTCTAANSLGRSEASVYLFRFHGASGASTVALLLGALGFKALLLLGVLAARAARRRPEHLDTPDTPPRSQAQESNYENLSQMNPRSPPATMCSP
Test: cell based binding FACS on human-siglec15-2D3-1E1 cells
Quantity Name: pEC50
When answering, recall that pEC50 equals minus log10 of the concentration in mol/L, and write that number alone.

Binder	pEC50
anti-Siglec15 benchmark (ch5G12) (antibody, human IgG1, kappa, V domains shown, ch5G12 (US 20190202912A1); also called BM; Siglec15-ch5G9) VH: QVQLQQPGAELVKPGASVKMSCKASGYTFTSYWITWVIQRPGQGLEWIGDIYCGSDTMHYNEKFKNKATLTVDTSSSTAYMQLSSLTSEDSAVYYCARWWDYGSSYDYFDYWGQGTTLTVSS VL: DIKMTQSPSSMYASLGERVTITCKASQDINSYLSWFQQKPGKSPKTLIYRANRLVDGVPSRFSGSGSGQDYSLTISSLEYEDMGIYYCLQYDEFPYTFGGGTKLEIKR	9.06
A2A5C7E8-2 (antibody, human IgG1, kappa, V domains shown, Variant of A2A5C7E8 modified in VH CDR2 (X1 = E)) VH: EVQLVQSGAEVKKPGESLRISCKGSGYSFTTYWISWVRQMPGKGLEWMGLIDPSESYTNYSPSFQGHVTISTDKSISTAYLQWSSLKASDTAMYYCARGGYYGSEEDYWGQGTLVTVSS VL: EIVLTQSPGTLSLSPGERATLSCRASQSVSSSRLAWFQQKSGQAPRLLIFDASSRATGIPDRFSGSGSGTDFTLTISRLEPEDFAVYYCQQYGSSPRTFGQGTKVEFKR	8.83

stdin: # query: pEC50 of entry A2A5C7E8-3 (antibody, human IgG1, kappa, V domains shown, Variant of A2A5C7E8 modified in VH CDR2 (X2 = K)) VH: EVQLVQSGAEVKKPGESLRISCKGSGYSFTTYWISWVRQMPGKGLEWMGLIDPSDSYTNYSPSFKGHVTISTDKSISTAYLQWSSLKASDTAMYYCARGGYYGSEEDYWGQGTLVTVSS VL: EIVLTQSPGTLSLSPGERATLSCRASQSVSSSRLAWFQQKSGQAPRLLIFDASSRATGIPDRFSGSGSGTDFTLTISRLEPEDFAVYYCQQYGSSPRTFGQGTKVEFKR
stdout: 8.97

stdin: # query: pEC50 of entry A2A5C7E8 (antibody, V domains shown, Fully human antibody from transgenic mouse hybridoma; also called A2A5C7E8-1) VH: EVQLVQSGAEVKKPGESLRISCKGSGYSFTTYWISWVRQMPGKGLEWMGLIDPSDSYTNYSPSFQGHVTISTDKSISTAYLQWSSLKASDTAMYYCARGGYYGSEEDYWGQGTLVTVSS VL: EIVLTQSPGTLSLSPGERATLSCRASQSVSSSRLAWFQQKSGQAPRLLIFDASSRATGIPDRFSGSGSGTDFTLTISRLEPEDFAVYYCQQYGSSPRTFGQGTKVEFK
stdout: 8.93
